Test system: MOLT-4 leukemia
Experimental details: NCI tumour cell line growth inhibition, 48 h
The entries below are paired with their reported TGI.

Observe how each entry below is paired with its result.
CCOC(=O)/C(C#N)=C\c1ccc(N(CCC(=O)O)CCC(=O)O)c(I)c1
> 10 µM
COc1ccc(Br)c(N/N=C2\CCCNC2=O)c1
> 100 µM
O=C1CCCCC/C1=C\c1cccc(Cl)c1
> 100 µM

Entry under review: "Oc1ccccc1/C=C/c1csnn1" . Reported TGI?
> 100 µM

And C=CCOc1cccc(C2(O)c3ccccc3C3=NCCCN32)c1 (stereo unspecified) ?
40 µM

"C=CCN1C(=O)/C(=C/c2ccco2)N=C1SC/C=C/C" , same question.
54.7 µM

Please do the same for "CC1=NN(C(=O)c2ccccc2O)C(=O)/C1=C/c1ccco1" as well.
> 100 µM

Another: Fc1ccc2c(c1)C1=NN(c3ccccc3)C(F)C1CO2 (stereo unspecified)
> 50 µM

Request: "COc1cc2ccc(/C=C\[N+](=O)[O-])cc2cc1OC"
19.1 µM

Now give it for "COc1ccc2c(c1)c(=O)oc1cc(OC/C(C)=N\O)ccc12" too.
> 100 µM

Next entry: "COc1cc(/C=C/C(=O)c2cccc(Nc3nc(Nc4ccccc4)nc(Nc4ccccc4)n3)c2)cc(OC)c1OC"
4.38 µM

###

Tested on: LOX IMVI melanoma
Experimental details: NCI tumour cell line growth inhibition, 48 h
Use 30 µM as the dividing line for TGI, with the line itself on the MET side and lower values as NOT MET.

Previously resolved entries follow.
N#Cc1c(N)nc(-c2ccc(Cl)cc2)c2c1-c1ccccc1S(=O)(=O)CC2
MET
Nc1ncnn2c(C3OC(CO)C(O)C3O)ccc12 (configuration not stated)
NOT MET

Would you say Fc1ccc2c(c1)C1=NN(c3ccccc3)C(F)C1CO2 (configuration not stated) shows TGI at minimum 30 µM?
NOT MET

And what about the compound "COC1=C(OC)C(=O)C(Cc2c(Cl)nc3sc(C)cn23)=C(C)C1=O" ?
MET

Next entry: CC(=O)OCC1OC(n2cnc(C(N)=S)c2N)C(OC(C)=O)C1OC(C)=O (configuration not stated)
MET

Next compound up: "O=C(O)c1nc2cc(C(F)(F)F)ccc2nc1Nc1ccc(F)cc1"
MET

Same for "Cc1ccc2c(c1)[nH]c(=S)n2/C=C1\C(=O)Oc2ccccc2C1=O"
MET

Repeat for the following compound: O=C1c2cc(Cl)ccc2-n2cnnc2C2CSCN12 (configuration not stated)
MET

Follow-up item: "Cc1ccc(Nc2n[nH]c(=S)s2)cc1C"
MET

Repeat for the following compound: "COCCOC(=O)c1c(C)n([O-])c2cc(Cl)c(Cl)cc2[n+]1=O"
MET

Same lookup for CC(C)Cn1cnc2c(NCC(C)O)nc3ccccc3c21 (configuration not stated) , please.
MET

###

Tested on: COLO 205 colon
Experimental details: NCI tumour cell line growth inhibition, 48 h; in the data active = GI50 below about 0.43 µM; inactive = the rest
Respond with a class label; see active, inactive

O=[N+]([O-])O.[Cu+2].[NH-]CC[NH-].[NH-]CC[NH-]
inactive
CN(O)c1nc(N(C)O)nc(N2CCOCC2)n1
inactive

What is the recorded call for this molecule in the test? "CC(C)N(Cc1ccccc1)c1c(S)ssc1=S"
inactive

# repeat for "COC(=O)c1nc(-c2ccccc2)oc1S(=O)(=O)Cc1ccccc1"
inactive

Now the same for "COc1cc([N+](=O)[O-])c(OC)cc1-c1nc2sc(Cl)cn2c1/C(N)=N/C(=N)N"
inactive

Another molecule: "C=C(C)C(=O)Nc1ccc(NC(C)C)cc1"
inactive

Also C=C1CCC2C3(C)COC(c4ccc(N(C)C)cc4)OC3CCC2(C)C1C/C=C1/C(=O)OCC1O (stereo unspecified) ?
inactive

What do you have for CC1CCC(NC(=O)N(CCCl)N=O)CC1 (stereo unspecified) ?
inactive

Here is the next molecule: COc1cc2c(c(OC)c1OC)-c1ccc(SC)c(=O)cc1C(CO)C2 (stereo unspecified)
active

Please do the same for "CC(C)(C)n1cc(-c2ccnc(NCCCNS(=O)(=O)c3ccc(C(F)(F)F)cc3)c2)c(-c2cccc(O)c2)n1" as well.
inactive

Next up: "COc1cnc2c(c1)C(=O)c1c-2n(CCCn2ccnc2)c(=O)c2cc(F)ccc12"
active
